# System: human SMAD7 mRNA
# Assay Text: Dose-dependent inhibition of human SMAD7 mRNA expression in Hep3B cells (Example 3, Study 1 and 2)
# Format: cell-based
# Test Settings: electroporation, Study 2 (740-20000 nM)
Strand notation (5' to 3'): a small letter for the sugar, then the base; units joined by * are phosphorothioate-linked, units joined directly phosphodiester-linked; [ ] holds rarer units or linkages, { } end groups; capitals alone tell only the bases. k = constrained ethyl (cEt); [5mC] = 5-methylcytosine; d = 2'-deoxy (DNA)
Item-by-item account of pIC50
Here pIC50 is given on a logarithmic scale as minus log10 of the concentration in mol/L.

These solved cases illustrate the format of a correct answer.
// pIC50 value for 798824 (kG*kA*k[5mC]*dA*d[5mC]*dA*dG*dT*dA*dG*dA*dG*d[5mC]*k[5mC]*kT*k[5mC]; antisense) [compound 798824] : 5.40

// pIC50 value for 799596 (kA*k[5mC]*kT*d[5mC]*dT*dG*dA*dA*d[5mC]*dG*dG*dA*dA*kA*kG*kA; antisense) [compound 799596] : 5.30

// pIC50 value for 799572 (kA*k[5mC]*k[5mC]*dA*dT*d[5mC]*dT*dA*dA*d[5mC]*dA*dA*d[5mC]*kA*kT*k[5mC]; antisense) [compound 799572] : 6.00

New cases:
// pIC50 value for 799878 (kG*k[5mC]*k[5mC]*d[5mC]*d[5mC]*d[5mC]*d[5mC]*dT*d[5mC]*d[5mC]*d[5mC]*d[5mC]*dG*kT*kG*k[5mC]; antisense) [compound 799878] : 4.77

// pIC50 value for 799159 (antisense kG*kT*kG*dT*dA*dT*dG*dA*dG*dT*dT*dG*dT*kA*kG*kA) [compound 799159] : 4.72

###

Item-by-item account of Monocytes
# Assay Text: Hematology assays after subcutaneous administration in beagle dogs (Example 8)
# Assay type: in vivo
# Test Settings: 30 mg/kg subcutaneous days 1, 3, 5, 8, 15, 22, 29
Provide only the numeric value, understood in %.

// Monocytes value for 830037 (antisense CTATTGGCTGATCTGG; 3-10-3 cEt gapmer, further chemistry not given here) [compound 830037] : 8.0

// Monocytes value for 790615 (CCAATGAGAATGCTTC; 3-10-3 cEt gapmer, further chemistry not given here) [compound 790615] : 7.9

// Monocytes value for 830121 (AGAATCAAGCCCTGGC; 3-10-3 cEt gapmer, further chemistry not given here) [compound 830121] : 7.7

// Monocytes value for 830025 (antisense TTTGTAAATCGAAAGC; 3-10-3 cEt gapmer, further chemistry not given here) [compound 830025] : 8.2

New cases:
// Monocytes value for 829994 (GGAGGCAGGGCCGCGA; 3-10-3 cEt gapmer, further chemistry not given here) [compound 829994] : 6.3

// Monocytes value for 798781 (CGTAAGATTCACAGCA; 3-10-3 cEt gapmer, further chemistry not given here) [compound 798781] : 6.5

###

# Assay Text: Blood chemistry markers after oral gavage in CD-1 mice (Example 7)
# Type: in vivo
# Test Settings: 500 mg/kg oral gavage once daily for 4 weeks, day 30
Item-by-item account of ALT
Provide only the numeric value, understood in IU/L.

These solved cases illustrate the format of a correct answer.
// ALT value for 798781 (CGTAAGATTCACAGCA; 3-10-3 cEt gapmer, further chemistry not given here) [compound 798781] : 43

// ALT value for 829994 (GGAGGCAGGGCCGCGA; 3-10-3 cEt gapmer, further chemistry not given here) [compound 829994] : 38

New cases:
// ALT value for 790615 (CCAATGAGAATGCTTC; 3-10-3 cEt gapmer, further chemistry not given here) [compound 790615] : 41
